measurement-target: T1, human B7-H3 naturally expressed on the surface of SKOV3 cells (human, UniProt Q5ZPR3 29-534)
T1 construct: whole, on cells; also called surface antigen of SKOV3 cells; B7-H3 on the surface of SKOV3 cells
T1 sequence (looked up): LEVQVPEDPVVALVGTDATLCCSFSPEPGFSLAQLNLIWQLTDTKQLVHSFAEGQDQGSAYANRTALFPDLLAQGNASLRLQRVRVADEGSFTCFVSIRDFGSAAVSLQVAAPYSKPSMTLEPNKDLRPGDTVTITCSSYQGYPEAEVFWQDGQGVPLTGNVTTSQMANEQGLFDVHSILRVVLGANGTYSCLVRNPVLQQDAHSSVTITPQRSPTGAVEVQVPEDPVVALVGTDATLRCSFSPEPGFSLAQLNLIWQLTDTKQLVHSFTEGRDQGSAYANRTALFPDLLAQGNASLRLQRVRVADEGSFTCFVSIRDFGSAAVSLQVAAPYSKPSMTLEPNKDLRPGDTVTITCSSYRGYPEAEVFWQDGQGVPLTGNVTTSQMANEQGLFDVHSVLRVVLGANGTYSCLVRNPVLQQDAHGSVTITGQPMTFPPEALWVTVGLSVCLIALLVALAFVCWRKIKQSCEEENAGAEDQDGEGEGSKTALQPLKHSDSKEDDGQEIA
protocol-text: flow cytometry (MFI) on SKOV3 cells naturally expressing human B7-H3
Reported EC50 by item:
Please state the figure in nM; there is no need to write the unit.

{"binder": "hz10B4 (antibody, V domains shown, Humanized anti-B7-H3 antibody prepared by the method of CN114573695A; also called parent hz10B4; hz10B4-VH×hz10B4-VL) VH: EVQLVQSGAEVKKPGASVKVSCKASGYTFTEYIMHWVRQAPGQGLEWMGGINPASGGTTYNQKFKGRVTMTRDTSISTAYMELSRLRSEDTAVYYCARKGKDYFDWYFDVWGQGTTVTVSS VL: DIQLTQSPSSLSASVGDRVTMTCSASSSVSYMHWYQQKPGKAPKLLIYDTSKLASGVPSRFSGSGSGTDFTLTISSLQPEDFATYYCQQWSSNPLTFGGGTKVEIK", "EC50 [nM]": 1.58}
{"binder": "hz10B4m3 (antibody, V domains shown, LCDR3 variant of hz10B4 (SSN→SSQ); also called hz10B4-VH×hz10B4-Lm3-VL) VH: EVQLVQSGAEVKKPGASVKVSCKASGYTFTEYIMHWVRQAPGQGLEWMGGINPASGGTTYNQKFKGRVTMTRDTSISTAYMELSRLRSEDTAVYYCARKGKDYFDWYFDVWGQGTTVTVSS VL: DIQLTQSPSSLSASVGDRVTMTCSASSSVSYMHWYQQKPGKAPKLLIYDTSKLASGVPSRFSGSGSGTDFTLTISSLQPEDFATYYCQQWSSQPLTFGGGTKVEIK", "EC50 [nM]": 1.59}

EC50 measured on hz10B4m1 (antibody, V domains shown, LCDR3 variant of hz10B4 (SSN→SSA); also called hz10B4-VH×hz10B4-Lm1-VL) VH: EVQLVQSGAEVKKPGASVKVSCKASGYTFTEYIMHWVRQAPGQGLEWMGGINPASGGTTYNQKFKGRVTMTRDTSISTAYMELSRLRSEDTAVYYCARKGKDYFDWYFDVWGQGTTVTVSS VL: DIQLTQSPSSLSASVGDRVTMTCSASSSVSYMHWYQQKPGKAPKLLIYDTSKLASGVPSRFSGSGSGTDFTLTISSLQPEDFATYYCQQWSSAPLTFGGGTKVEIK = 1.89
